Value source: patent US20250176599A1

Assay: Sensory evaluation of aqueous solution III containing 1-octen-3-one 1 ppb: off-flavor intensity and masking component intensity
Conditions: 1 ppm added, 1-octen-3-one 1 ppb, average score 0-4
Consider the following compounds; for each one, report its Off-Flavor Intensity.
Express the result in points but write the number alone.

Q: // returns reported Off-Flavor Intensity for input C=C(C)[C@@H]1CCC2=CC(=O)C[C@@H](C)[C@]2(C)C1
Result: 1.6

Q: // returns reported Off-Flavor Intensity for input C=CC(C)(CCC=C(C)C)OC(=O)CCC (stereo not shown) [Linalyl Butyrate, linalyl butyrate]
Result: 1.5

Q: // returns reported Off-Flavor Intensity for input CC(=O)/C=C/C1=C(C)CCCC1(C)C
Result: 0.8

Q: // returns reported Off-Flavor Intensity for input CCCC(=O)C(C)=O
Result: 2.3

Q: // returns reported Off-Flavor Intensity for input CC(=O)/C=C/C1C(C)=CCCC1(C)C (stereo not shown)
Result: 0.8

Q: // returns reported Off-Flavor Intensity for input CCC(=O)/C=C/C1C(C)=CCCC1(C)C (stereo not shown)
Result: 0.3

Q: // returns reported Off-Flavor Intensity for input CCCCCCCC/C=C\CCCCCCCC(=O)O
Result: 2.8

###

Experiment: Sensory evaluation of aqueous solution III containing 1-octen-3-one 1 ppb: off-flavor intensity and masking component intensity
Settings: 10 ppt added, 1-octen-3-one 1 ppb, average score 0-4
Kindly return rule met if reported Off-Flavor Intensity is no lower than 3 points; return rule not met if it is lower.

Q: Item C=C(C)[C@@H]1CCC2=CC(=O)C[C@@H](C)[C@]2(C)C1 [Nootkatone, nootkatone] with Off-Flavor Intensity of 3 points or above?
Result: rule met

Q: Item C=CC(C)(CCC=C(C)C)OC(=O)CCC (stereo not shown) [Linalyl Butyrate, linalyl butyrate] with Off-Flavor Intensity of 3 points or above?
Result: rule met

Q: Item CC(=O)/C=C/C1=C(C)CCCC1(C)C [β-Ionone, β-ionone] with Off-Flavor Intensity of 3 points or above?
Result: rule not met

Q: Item O=C1CCCCCCCCCCCC(=O)OCCO1 [1,4-Dioxacycloheptadecan-5,17-Dione, 1,4-dioxacycloheptadecan-5,17-dione] with Off-Flavor Intensity of 3 points or above?
Result: rule not met

Q: Item C/C=C/C(=O)C1=C(C)C=CCC1(C)C [β-Damascenone, β-damascenone] with Off-Flavor Intensity of 3 points or above?
Result: rule not met

Q: Item CCC(=O)/C=C/C1C(C)=CCCC1(C)C (stereo not drawn) [α-Methyl Ionone, α-methyl ionone] with Off-Flavor Intensity of 3 points or above?
Result: rule not met

###

Test: Sensory evaluation of aqueous solution I containing (E)-2-nonenal 1 ppb: off-flavor intensity and masking component intensity
Settings: 1 ppm added, average panel score
Consider the following compounds; for each one, report its Masking Component Intensity.

Q: // returns reported Masking Component Intensity for input C=CC(C)(O)CCC=C(C)CCC=C(C)C (stereo not drawn) [nerolidol]
Result: 2.0

Q: // returns reported Masking Component Intensity for input CC(=O)/C(C)=C/C1C(C)=CCCC1(C)C (stereo not drawn) [γ-methyl ionone]
Result: 4.0

Q: // returns reported Masking Component Intensity for input CC1CCC(C(C)C)C(OCC(O)CO)C1 (stereo not drawn) [3-menthoxypropan-1,2-diol]
Result: 1.1

Q: // returns reported Masking Component Intensity for input CC(C)C=C(C=O)c1ccccc1 [4-methyl-2-phenyl-2-pentenal]
Result: 1.9

Q: // returns reported Masking Component Intensity for input CC1CCC(C(C)C)C(OCCO)C1 (stereo not drawn) [2-menthoxyethanol]
Result: 1.6

Q: // returns reported Masking Component Intensity for input CC(O)CC(=O)OC1CC(C)CCC1C(C)C (stereo not drawn) [menthyl 3-hydroxybutyrate]
Result: 1.9

###

Assay: Sensory evaluation of aqueous solution V containing 1-octen-3-ol 10 ppb: off-flavor intensity and masking component intensity
Settings: 50 ppm added, average panel score
Procedure: In ion-exchanged water, each degradation component was added to achieve the concentrations listed in Table 1, and aqueous solutions I to VI containing these degradation components were prepared. […] Also, the intensity of the masking components (impact on the flavor of the food and/or beverage itself) was absolutely evaluated according to the following evaluation criteria. […]
READOUT: Off-Flavor Intensity
// keep it numeric: no unit symbol after the value

Q: // returns reported Off-Flavor Intensity for input CC(O)CC(=O)OC1CC(C)CCC1C(C)C (stereo not shown) [menthyl 3-hydroxybutyrate]
Result: 1.5

Q: // returns reported Off-Flavor Intensity for input CC1CCC(C(C)C)C(OCCO)C1 (stereo not shown)
Result: 1.8

Q: // returns reported Off-Flavor Intensity for input CC1CCC(C(C)C)C(OCC(O)CO)C1 (stereo not shown)
Result: 1.6

Q: // returns reported Off-Flavor Intensity for input CC(C)C=C(C=O)c1ccccc1
Result: 0.5

###

Consider the following compounds; for each one, report its Masking Component Intensity.
Assay: Sensory evaluation of aqueous solution I containing (E)-2-nonenal 1 ppb: off-flavor intensity and masking component intensity
Settings: 10 ppm added, average panel score

Q: // returns reported Masking Component Intensity for input C=CC(C)(O)CCC=C(C)CCC=C(C)C (centres unmarked)
Result: 3.8

Q: // returns reported Masking Component Intensity for input CC(O)CC(=O)OC1CC(C)CCC1C(C)C (centres unmarked) [menthyl 3-hydroxybutyrate]
Result: 2.5

Q: // returns reported Masking Component Intensity for input CC1CCC(C(C)C)C(OCC(O)CO)C1 (centres unmarked)
Result: 1.9

Q: // returns reported Masking Component Intensity for input CC1CCC(C(C)C)C(OCCO)C1 (centres unmarked)
Result: 2.3

Q: // returns reported Masking Component Intensity for input CC(C)C=C(C=O)c1ccccc1
Result: 3.8

###

Consider the following molecules; for each one, report its Masking Component Intensity.
Assay: Sensory evaluation of aqueous solution IV containing 1,5-octadien-3-one 100 ppt: off-flavor intensity and masking component intensity
Conditions: aqueous solution IV; 100 ppb added; average panel score
// keep it numeric: no unit symbol after the value

Q: // returns reported Masking Component Intensity for input CC1CCC(C(C)C)C(OCCO)C1 (stereo not drawn) [2-menthoxyethanol]
Result: 1.6

Q: // returns reported Masking Component Intensity for input C=CC(C)(O)CCC=C(C)CCC=C(C)C (stereo not drawn) [nerolidol]
Result: 1.3

Q: // returns reported Masking Component Intensity for input CC(O)CC(=O)OC1CC(C)CCC1C(C)C (stereo not drawn) [menthyl 3-hydroxybutyrate]
Result: 0.8

Q: // returns reported Masking Component Intensity for input CC(=O)/C(C)=C/C1C(C)=CCCC1(C)C (stereo not drawn) [γ-methyl ionone]
Result: 3.4

Q: // returns reported Masking Component Intensity for input CC(C)C=C(C=O)c1ccccc1 [4-methyl-2-phenyl-2-pentenal]
Result: 1.4

Q: // returns reported Masking Component Intensity for input CC1CCC(C(C)C)C(OCC(O)CO)C1 (stereo not drawn) [3-menthoxypropan-1,2-diol]
Result: 0.9

###

Experiment: Sensory evaluation of aqueous solution VI containing 1,5-octadien-3-ol 10 ppb: off-flavor intensity and masking component intensity
Conditions: aqueous solution VI; 1 ppm added; average panel score
READOUT: Masking Component Intensity
// keep it numeric: no unit symbol after the value

Q: // returns reported Masking Component Intensity for input CC(=O)/C(C)=C/C1C(C)=CCCC1(C)C (stereo not shown)
Result: 4.0

Q: // returns reported Masking Component Intensity for input CC(C)C=C(C=O)c1ccccc1
Result: 1.8

Q: // returns reported Masking Component Intensity for input CC1CCC(C(C)C)C(OCC(O)CO)C1 (stereo not shown)
Result: 0.8

Q: // returns reported Masking Component Intensity for input CC1CCC(C(C)C)C(OCCO)C1 (stereo not shown)
Result: 2.0
